# systemTested: PI3Kδ (p110δ/p85α) Recombinant Human Protein (Homo sapiens (Human))
# Sequence (O00329 whole entry): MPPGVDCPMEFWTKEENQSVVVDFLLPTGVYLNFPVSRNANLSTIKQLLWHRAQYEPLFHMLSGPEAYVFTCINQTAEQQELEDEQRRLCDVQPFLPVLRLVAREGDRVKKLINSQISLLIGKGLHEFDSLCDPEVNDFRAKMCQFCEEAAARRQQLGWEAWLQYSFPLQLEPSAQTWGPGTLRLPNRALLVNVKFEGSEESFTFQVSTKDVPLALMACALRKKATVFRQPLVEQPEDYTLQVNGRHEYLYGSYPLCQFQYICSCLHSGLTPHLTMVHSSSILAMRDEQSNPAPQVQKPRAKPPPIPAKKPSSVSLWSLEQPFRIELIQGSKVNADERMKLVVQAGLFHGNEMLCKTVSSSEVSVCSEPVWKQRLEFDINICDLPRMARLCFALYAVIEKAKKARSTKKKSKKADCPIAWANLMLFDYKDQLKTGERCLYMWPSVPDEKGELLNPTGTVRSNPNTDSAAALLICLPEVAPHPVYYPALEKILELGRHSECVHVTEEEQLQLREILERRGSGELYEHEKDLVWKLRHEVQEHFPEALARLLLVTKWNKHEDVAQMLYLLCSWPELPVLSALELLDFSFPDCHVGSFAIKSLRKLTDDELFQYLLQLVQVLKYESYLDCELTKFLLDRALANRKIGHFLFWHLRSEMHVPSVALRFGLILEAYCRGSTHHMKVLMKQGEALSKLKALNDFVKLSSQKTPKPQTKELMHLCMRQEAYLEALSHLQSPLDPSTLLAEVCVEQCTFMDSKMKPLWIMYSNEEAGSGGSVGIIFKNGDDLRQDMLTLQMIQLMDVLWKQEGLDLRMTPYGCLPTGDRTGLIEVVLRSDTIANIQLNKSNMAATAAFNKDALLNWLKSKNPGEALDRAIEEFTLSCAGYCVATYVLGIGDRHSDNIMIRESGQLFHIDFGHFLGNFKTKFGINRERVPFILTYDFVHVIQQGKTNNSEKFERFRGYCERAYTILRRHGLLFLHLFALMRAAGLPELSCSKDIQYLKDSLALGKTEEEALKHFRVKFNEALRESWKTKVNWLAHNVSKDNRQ
# Sequence (P27986 whole entry partner): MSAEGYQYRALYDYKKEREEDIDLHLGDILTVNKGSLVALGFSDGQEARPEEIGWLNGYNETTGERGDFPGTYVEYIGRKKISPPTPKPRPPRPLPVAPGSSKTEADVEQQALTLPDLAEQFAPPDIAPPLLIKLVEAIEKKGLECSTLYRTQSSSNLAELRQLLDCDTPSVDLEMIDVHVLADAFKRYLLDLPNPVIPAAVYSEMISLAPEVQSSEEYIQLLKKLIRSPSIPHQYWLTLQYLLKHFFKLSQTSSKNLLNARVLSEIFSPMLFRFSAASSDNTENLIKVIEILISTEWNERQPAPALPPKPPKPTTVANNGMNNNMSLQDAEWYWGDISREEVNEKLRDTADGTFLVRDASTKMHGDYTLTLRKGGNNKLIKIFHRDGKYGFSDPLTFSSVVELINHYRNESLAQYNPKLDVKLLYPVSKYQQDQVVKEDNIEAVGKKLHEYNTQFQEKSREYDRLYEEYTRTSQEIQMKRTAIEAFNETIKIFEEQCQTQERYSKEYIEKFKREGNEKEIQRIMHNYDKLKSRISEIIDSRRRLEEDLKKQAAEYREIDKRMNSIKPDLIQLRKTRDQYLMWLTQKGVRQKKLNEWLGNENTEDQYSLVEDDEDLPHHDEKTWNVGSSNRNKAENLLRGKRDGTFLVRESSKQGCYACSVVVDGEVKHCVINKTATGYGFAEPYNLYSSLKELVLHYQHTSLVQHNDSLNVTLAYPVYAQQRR
# assayMethodText: PI3Kδ Scintillation Proximity Assay
# Type: biochemical
# testConditions: 20 μM PIP2, 2 μM ATP, 3.4 nM PI3Kδ, 120 min
pIC50: −log10 of the molar value. Structures can show the parent of a compound that is named as a salt.
measuredParameter: pIC50

Using the record for C[C@@H](C1CC1)N1Cc2cc(-c3cnc4c(N)nc(C(=O)NC5CCOCC5O)cn34)ccc2C1=O (mixture of isomers) [Example 32, trifluoroacetate salt] , report its pIC50.
≤ 5.70

So what's the measured pIC50 for this one? C[C@@H](C1CC1)N1Cc2cc(-c3cnc4c(N)ncnn34)cc(C(O)(CO)C(F)(F)F)c2C1=O (mixture of isomers) [Example 39, trifluoroacetate salt]
> 5.70

Suppose we examine the compound C[C@@H](C1CC1)N1Cc2cc(-c3cnc4c(N)nc(-c5cn[nH]c5)cn34)cc(S(C)(=O)=O)c2C1=O [Example 38, trifluoroacetate salt] ; what pIC50 value has been reported?
≥ 6.30

Reported pIC50 for C[C@@H](C1CC1)N1Cc2cc(-c3cnc4c(N)nc(C(F)(F)F)cn34)cc(C(O)(CO)C(F)(F)F)c2C1=O (mixture of isomers) [Example 40, trifluoroacetate salt] : what is it?
> 5.70

Any idea what pIC50 was measured for C[C@@H](C1CC1)N1Cc2cc(-c3cnc4c(N)nc(-c5cnn(C)c5)cn34)cc(S(C)(=O)=O)c2C1=O [Example 35, trifluoroacetate salt] ?
≥ 6.30
